- assayed-system: α1B-1α2b human neuronal calcium channel subunit combination (human)
- assay-overview: saturation binding of 125I-ω-CgTx GVIA to transfected HEK293 cells
value-type: Kd (nM)
Supply the numeric figure in nM, leaving out any unit text.

Task: Provide Kd value for the following binder: CKSPGSSCSPTSYNCCRSCNPYTKRCY (modifications not checked) [125I-ω-CgTx GVIA, P01522 46-72]
Output: 0.0846
